# experiment-description: CCTE_Shafer_MEA_dev_AB: CCTE's Alamar Blue Assay for Cytotoxicity in the Neural Network Formation Assay, Shafer Lab (AID 2284083);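 note: resazurin reduction fluorescence as viability of cultured neurons; twelve days of exposure from plating with re-dosing on DIV 5 and 9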
Inconclusive results are not listed. The source made the active and inactive calls. Rule for the calls: active = hit-call score of the fitted dose curve at least 0.9, where 1 is the maximum; inconclusive = response in the unintended direction; inactive = score below 0.9.
Outcome codes: active, inactive

- CS(=O)(=O)c1ccc(C(=O)C2C(=O)CCCC2=O)c(Cl)c1COCC(F)(F)F: inactive
- CC1(C)[C@H](C(=O)O[C@H](C#N)c2cccc(Oc3ccccc3)c2)[C@@H]1/C=C(\Cl)C(F)(F)F: active
- CC(C)[C@@H](Nc1ccc(C(F)(F)F)cc1Cl)C(=O)OC(C#N)c1cccc(Oc2ccccc2)c1 (some centres undefined): active
- Cc1cc(C(F)(C(F)(F)F)C(F)(F)F)ccc1NC(=O)c1cccc(I)c1C(=O)NC(C)(C)CS(C)(=O)=O: active
